Target: D(2) dopamine receptor (Homo sapiens)
Test: Dopamine D2 receptor (DRD2) small molecule antagonists, cell-based qHTS assay (AID 1963595)
Details: HEK293-DRD2 cAMP HTRF antagonist mode; series mostly up to 92.4 µM
Results filed as inconclusive are left out. Active and inactive are the calls of the source. Calls follow the shape of the dose curve; as a rule, active = well fitted inhibition curve with a large enough effect in the signal ratio in the repeat runs, with a control signal flat; inconclusive = weak or mixed curves, or effect the other way; inactive = flat fitted curve, though single readings scatter; the % refers to the signal ratio.
// allowed return values: True (active), False (inactive)

Q: Which outcome was entered for the molecule CCCCC(CC)COC(=O)OOC(C)(C)C (stereo unspecified) in this test?
A: False

Q: Can you look up the reported call for CC(C)(OO)c1ccccc1 for me?
A: False

Q: Per the assay record, what outcome was assigned to CCOP(=S)(OCC)SCn1nnc2ccccc2c1=O ?
A: False

Q: # lookup: test call for CCOP(=S)(OCC)SCSCC
A: False

Q: Tell me the recorded outcome of this test for CCN(CC)C(C)C(=O)c1ccccc1 (stereo unspecified) .
A: False

Q: For CCCC[N+]1(C)[C@@H]2CC(OC(=O)[C@H](CO)c3ccccc3)C[C@H]1[C@@H]1O[C@@H]12 (stereo partly specified) , what call appears in the results of this test?
A: False

Q: // return assay outcome for CCCN(CCCl)c1c([N+](=O)[O-])cc(C(F)(F)F)cc1[N+](=O)[O-]
A: False

Q: Write down the call the test reported for this molecule. Item: CCOP(=S)(OCC)Oc1cc(Cl)c(Br)cc1Cl
A: False

Q: # outcome recorded in this test, key = Oc1ccc(Cl)c(Cl)c1Cl
A: False

Q: Given CCCN1CCC[C@@H]2Cc3nc(N)ncc3C[C@H]21 , state the outcome it received in this test.
A: False

Q: Just curious, what result did O=C1CN2CCOC2(c2ccccc2Cl)c2cc(Cl)ccc2N1 (stereo unspecified) get here?
A: False

Q: Call for entry CS(=O)(=O)c1ccc(C(=O)C2C(=O)CCCC2=O)c([N+](=O)[O-])c1 :
A: False

Q: For Cc1ccc2cc3c(ccc4ccccc43)c3c2c1CC3 , which call appears in the assay record?
A: False

Q: Query: recorded result category for CC(=O)[O-].CC(=O)[O-].[Hg+2] in this test
A: True

Q: Called result for CCN1CCCC1CNC(=O)C(O)(c1ccccc1)c1ccccc1 (stereo unspecified)
A: False

Q: Would you mind telling me which call this test gave CCOP(=S)(OCC)SCCS(=O)(=O)CC ?
A: False

Q: Give the logged outcome of this assay for the following molecule: COC(=O)/C=C(\C)OP(=O)(OC)OC
A: False

Q: # fetch the recorded call for NCC1(CC(=O)O)CCCCC1 here
A: False

Q: Check the results log: what was the call for O=[N+]([O-])c1cc(C(F)(F)F)c(Cl)c([N+](=O)[O-])c1Nc1ncc(C(F)(F)F)cc1Cl ?
A: False

Q: For Clc1ccc(Oc2ccccc2)cc1 , what call appears in the results of this test?
A: False

Q: Outcome? CNC(=O)O/N=C(\C)C(C)S(C)(=O)=O (stereo unspecified)
A: False

Q: Recorded test outcome, item ClC(Br)Br
A: False

Q: Recorded call for CCc1ccc(C2CCNCC2)cc1 ?
A: False

Q: Outcome? CN1C2CCC(C)(C)C1CC(OC(=O)C(O)(c1cccs1)c1cccs1)C2 (stereo unspecified)
A: False

Q: Which outcome did this test record for the molecule COc1ccc2c(c1OC)C(=O)O[C@H]2[C@@H]1c2cc3c(cc2CCN1C)OCO3 ?
A: False

Q: What outcome does the record of this test show for Brc1ccc(Oc2ccc(Br)cc2Br)c(Br)c1 ?
A: False

Q: GET /call?item= C=C(C)CN(CC)c1c([N+](=O)[O-])cc(C(F)(F)F)cc1[N+](=O)[O-] returns the recorded outcome of this test.
A: False

Q: I'd appreciate the recorded outcome for COc1cc(CCN)cc(OC)c1OC from this test.
A: False

Q: Assay result, entry CCOCn1c(-c2ccc(Cl)cc2)c(C#N)c(Br)c1C(F)(F)F — outcome?
A: False

Q: Tell me the assay call for CC(Cc1ccc(OCC(=O)O)cc1)NCC(O)c1csc(C(F)(F)F)n1 (stereo unspecified) please.
A: False

Q: Returns: the outcome recorded for C#CC(C)(C)O in this assay.
A: False

Q: Hi, do you know how C[C@H](CN1CCOCC1)C(C(=O)N1CCCC1)(c1ccccc1)c1ccccc1 came out in this test?
A: False

Q: Could you please tell me the result logged for COc1nn(C(=O)NS(=O)(=O)c2ccccc2OC(F)(F)F)c(=O)n1C in this assay?
A: False

Q: For this molecule, state the assay outcome: COc1cc(OC)nc(NC(=O)NS(=O)(=O)c2ncccc2OCC(F)(F)F)n1
A: False

Q: Which outcome was entered for the molecule O=C(Nc1ccccc1)N(Cc1ccc(Cl)cc1)C1CCCC1 in this test?
A: False

Q: For CCOc1cc(OP(=S)(OC)OC)nc(CC)n1 , what call appears in the results of this test?
A: False

Q: Which result was noted for this molecule in the test: [C-]1=CC=CC1.[Cl][Zr+2][Cl].c1cc[cH-]c1
A: False

Q: Which outcome was entered for the molecule CCCSP(=O)(OCC)SCCC in this test?
A: False

Q: Which outcome was entered for the molecule CCC1(C2=NCCN2)Cc2ccccc2O1 (stereo unspecified) in this test?
A: False

Q: Entry Cc1ccc(S(=O)(=O)N[C@@H](CCCCN)C(=O)CCl)cc1 : call = ?
A: False

Q: Tell me the assay call for Cc1cnc2c(C(=O)O)c(Cl)ccc2c1 please.
A: False

Q: Recorded call for NP(N)(=O)NC(=O)c1ccc(F)cc1 ?
A: False

Q: // param item: CCOc1cc(Oc2ccc(C(F)(F)F)cc2Cl)ccc1[N+](=O)[O-] ; yields the recorded call
A: False

Q: Called result for CCC(C)Nc1c([N+](=O)[O-])cc(C(C)(C)C)cc1[N+](=O)[O-] (stereo unspecified)
A: False

Q: I'd appreciate the recorded outcome for CC(C)(COCC1CO1)COCC1CO1 (stereo unspecified) from this test.
A: False

Q: Tell me the recorded outcome of this test for CC(C)N(C(=O)SC/C(Cl)=C/Cl)C(C)C .
A: False

Q: Query: recorded result category for CCN(CC)CCOC(=O)C(C)(c1ccccc1)c1ccccc1 in this test
A: False

Q: Identify the outcome logged in this assay for the molecule shown: CCCCOC(=O)c1ccccc1N
A: False

Q: Give the logged outcome of this assay for the following molecule: Cc1nnc2n1-c1sc(CCC(=O)N3CCOCC3)cc1C(c1ccccc1Cl)=NC2
A: False

Q: What did this assay record as the result for Nc1n[nH]c(N)n1 ?
A: False

Q: For CCC1COC(Cn2cncn2)(c2ccc(Cl)cc2Cl)O1 (stereo unspecified) , what call appears in the results of this test?
A: False
